Where do the numbers come from? From patent US9969723B2.

# Lookup of reported inhibition at 30 min, 10 µM keyed by entry
- STUDY_SYSTEM: CYP2C19 (Homo sapiens (Human))
- Sequence (P33261 whole entry): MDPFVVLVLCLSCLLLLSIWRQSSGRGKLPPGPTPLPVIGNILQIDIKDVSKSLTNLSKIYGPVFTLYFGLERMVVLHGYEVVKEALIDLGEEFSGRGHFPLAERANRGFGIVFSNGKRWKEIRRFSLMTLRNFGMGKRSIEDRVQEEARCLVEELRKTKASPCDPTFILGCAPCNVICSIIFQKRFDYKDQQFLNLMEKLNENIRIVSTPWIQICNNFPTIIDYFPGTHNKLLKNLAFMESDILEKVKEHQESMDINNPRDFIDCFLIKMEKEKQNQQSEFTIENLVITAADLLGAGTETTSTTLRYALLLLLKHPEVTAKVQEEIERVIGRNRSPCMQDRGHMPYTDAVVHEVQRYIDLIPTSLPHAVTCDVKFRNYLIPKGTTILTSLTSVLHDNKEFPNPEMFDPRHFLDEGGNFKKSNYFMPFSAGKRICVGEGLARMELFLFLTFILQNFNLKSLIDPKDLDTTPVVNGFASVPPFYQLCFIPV
- TEST_DETAILS: CYP inhibition (BD GENTEST kit)
- Assay type: in vitro ADME
- APPLIED_CONDITIONS: CYP2C19 enzyme of the BD GENTEST CYP2C19 inhibition kit, pH 7.4, read-out: CYP inhibition (%) 2C19

{"columns": ["COMPOUND", "inhibition at 30 min, 10 µM / %"],
 "data": [
  ["CC#C[C@@H](CC(=O)O)c1ccc(OCc2cccc(C3=CCC4(CC3)OCCO4)c2)cc1", 3.7],
  ["CC#CC(CC(=O)O)c1ccc(OCc2ccc(C3=CCC4(CC3)OCCO4)cc2)cc1 (stereo not drawn)", 19.4],
  ["CC#C[C@@H](CC(=O)O)c1ccc(OCc2ccc(CN3Cc4ccccc4C3)cc2)cc1", 13.2]
]}

---

- STUDY_SYSTEM: CYP2C19 (Homo sapiens (Human))
- TEST_DETAILS: CYP inhibition (BD GENTEST kit)
- Type: in vitro ADME
- APPLIED_CONDITIONS: CYP2C19 enzyme of BD GENTEST inhibition kit, pH 7.4, read-out: CYP inhibition (%) 2C19
Listed next: entries and their corresponding inhibition at 30 min, 10 µM.

{"columns": ["MOLECULE", "inhibition at 30 min, 10 µM [%]"],
 "data": [
  ["CC#C[C@@H](CC(=O)O)c1ccc(OCc2ccc(CN3CCN(c4ccc(OC)cc4)CC3)cc2)cc1 [Example 40]", 19.5],
  ["CC#C[C@@H](CC(=O)O)c1ccc(OCc2ccc(CN3CCN(c4ccc(OCOC)cc4)CC3)cc2)cc1 [Example 29]", 9.7],
  ["CC#C[C@@H](CC(=O)O)c1ccc(OCc2ccc(CN3CCC4(C=Cc5ccccc54)CC3)cc2)cc1 [Comparative Example 2, reference compound]", 34.5],
  ["CC#CC(CC(=O)O)c1ccc(OCc2cccc(C3=CCC(=O)CC3)c2)cc1 (stereo not drawn) [Example 4]", 45.4],
  ["CC#CC(CC(=O)O)c1ccc(OCc2cccc(C3=CCC4(CC3)OCCO4)c2)cc1 (stereo not drawn) [Example 1]", 18.3],
  ["CC#C[C@@H](CC(=O)O)c1ccc(OCc2ccc(CN3CCC(c4ccccc4)CC3)cc2)cc1 [Example 26]", 13.2],
  ["CC#C[C@@H](CC(=O)O)c1ccc(OCc2ccc(CN3CCc4ccccc4C3)cc2)cc1 [Example 21]", 46.5],
  ["CC#C[C@@H](CC(=O)O)c1ccc(OCc2cccc(C3=CCC4(CC3)OCCO4)c2)cc1 [Example 7]", 3.7],
  ["CC#C[C@@H](CC(=O)O)c1ccc(OCc2ccc(CN3CCN(c4ccc(OCCCS(C)(=O)=O)cc4)CC3)cc2)cc1 [Example 36]", 10.8]
]}

---

- STUDY_SYSTEM: CYP1A2 (Homo sapiens (Human), UniProt P05177)
- Sequence (P05177 whole entry): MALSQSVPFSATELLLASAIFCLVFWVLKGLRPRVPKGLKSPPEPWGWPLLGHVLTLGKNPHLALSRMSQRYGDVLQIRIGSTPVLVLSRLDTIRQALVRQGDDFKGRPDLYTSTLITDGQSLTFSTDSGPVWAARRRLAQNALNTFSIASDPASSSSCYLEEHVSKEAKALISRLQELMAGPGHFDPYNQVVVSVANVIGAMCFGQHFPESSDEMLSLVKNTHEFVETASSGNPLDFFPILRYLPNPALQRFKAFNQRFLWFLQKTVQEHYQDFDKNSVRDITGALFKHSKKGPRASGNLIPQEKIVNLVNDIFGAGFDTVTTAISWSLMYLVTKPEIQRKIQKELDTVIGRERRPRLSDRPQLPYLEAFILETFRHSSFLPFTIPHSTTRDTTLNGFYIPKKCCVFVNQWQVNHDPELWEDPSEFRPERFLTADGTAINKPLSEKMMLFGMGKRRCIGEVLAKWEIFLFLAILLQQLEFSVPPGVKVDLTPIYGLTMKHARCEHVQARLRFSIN
- TEST_DETAILS: CYP inhibition (BD GENTEST kit)
- Assay type: in vitro ADME
- APPLIED_CONDITIONS: pH 7.4
Item-by-item account of inhibition at 15 min, 10 µM

{"columns": ["MOLECULE", "VALUE_UNITS", "inhibition at 15 min, 10 µM"],
 "data": [
  ["CC#C[C@@H](CC(=O)O)c1ccc(OCc2ccc(CN3Cc4ccccc4C3)cc2)cc1 [Example 38]", "%", 2.2],
  ["CC#CC(CC(=O)O)c1ccc(OCc2ccc(C3=CCC4(CC3)OCCO4)cc2)cc1 (centres unmarked) [Example 3]", "%", 0],
  ["CC#CC(CC(=O)O)c1ccc(OCc2cccc(C3=CCC4(CC3)OCCO4)c2)cc1 (centres unmarked) [Example 1]", "%", 0],
  ["CC#C[C@@H](CC(=O)O)c1ccc(OCc2ccc(CN3CCN(c4ccc(OCOC)cc4)CC3)cc2)cc1 [Example 29]", "%", 0.7],
  ["CC#C[C@@H](CC(=O)O)c1ccc(OCc2cccc(C3=CCC4(CC3)OCCO4)c2)cc1 [Example 7]", "%", 4.3],
  ["CC#C[C@@H](CC(=O)O)c1ccc(OCc2ccc(CN3CCN(c4ccc(OC)cc4)CC3)cc2)cc1 [Example 40]", "%", 9.7],
  ["CC#CC(CC(=O)O)c1ccc(OCc2cccc(C3=CCC(=O)CC3)c2)cc1 (centres unmarked) [Example 4]", "%", 0],
  ["CC#C[C@@H](CC(=O)O)c1ccc(OCc2ccc(CN3CCC(c4ccccc4)CC3)cc2)cc1 [Example 26]", "%", 0.7],
  ["CC#C[C@@H](CC(=O)O)c1ccc(OCc2ccc(CN3CCc4ccccc4C3)cc2)cc1 [Example 21]", "%", 4],
  ["CC#C[C@@H](CC(=O)O)c1ccc(OCc2ccc(CN3CCC4(C=Cc5ccccc54)CC3)cc2)cc1 [Comparative Example 2, reference compound]", "%", 0],
  ["CC#C[C@@H](CC(=O)O)c1ccc(OCc2ccc(CN3CCN(c4ccc(OCCCS(C)(=O)=O)cc4)CC3)cc2)cc1 [Example 36]", "%", 16.6]
]}

---

- STUDY_SYSTEM: CYP2C9 (Homo sapiens (Human))
- TEST_DETAILS: CYP inhibition (BD GENTEST kit)
- Type: in vitro ADME
- APPLIED_CONDITIONS: CYP2C9 enzyme of the BD GENTEST CYP2C9 inhibition kit, pH 7.4, read-out: CYP inhibition (%) 2C9

{"columns": ["COMPOUND", "inhibition at 1.5 h, 10 µM"],
 "data": [
  ["CC#C[C@@H](CC(=O)O)c1ccc(OCc2cccc(C3=CCC4(CC3)OCCO4)c2)cc1", "47.1%"],
  ["CC#CC(CC(=O)O)c1ccc(OCc2ccc(C3=CCC4(CC3)OCCO4)cc2)cc1 (stereo not drawn)", "21.1%"],
  ["CC#C[C@@H](CC(=O)O)c1ccc(OCc2ccc(CN3Cc4ccccc4C3)cc2)cc1", "34.4%"]
]}

---

- STUDY_SYSTEM: CYP2C9 (Homo sapiens (Human), UniProt P11712)
- Sequence (P11712 whole entry): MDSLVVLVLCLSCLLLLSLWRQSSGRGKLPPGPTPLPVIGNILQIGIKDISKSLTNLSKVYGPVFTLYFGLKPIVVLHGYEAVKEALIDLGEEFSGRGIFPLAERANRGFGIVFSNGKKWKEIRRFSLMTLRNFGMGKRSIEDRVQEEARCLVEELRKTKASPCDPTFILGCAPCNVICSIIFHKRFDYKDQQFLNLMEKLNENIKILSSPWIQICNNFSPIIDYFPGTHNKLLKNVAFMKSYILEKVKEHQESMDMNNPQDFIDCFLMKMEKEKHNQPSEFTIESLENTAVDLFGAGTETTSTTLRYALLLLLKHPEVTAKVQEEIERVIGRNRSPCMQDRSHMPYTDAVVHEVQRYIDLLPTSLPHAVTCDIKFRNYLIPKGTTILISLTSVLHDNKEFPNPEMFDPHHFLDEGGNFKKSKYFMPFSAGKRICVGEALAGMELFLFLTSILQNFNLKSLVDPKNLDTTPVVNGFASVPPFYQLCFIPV
- TEST_DETAILS: CYP inhibition (BD GENTEST kit)
- Assay type: in vitro ADME
- APPLIED_CONDITIONS: CYP2C9 enzyme of BD GENTEST inhibition kit, pH 7.4, read-out: CYP inhibition (%) 2C9
inhibition at 1.5 h, 10 µM vs 40%: at or above is condition met, below is condition not met.

{"columns": ["COMPOUND", "CLASS_NAME"],
 "data": [
  ["CC#C[C@@H](CC(=O)O)c1ccc(OCc2ccc(CN3CCc4ccccc4C3)cc2)cc1", "condition met"],
  ["CC#C[C@@H](CC(=O)O)c1ccc(OCc2ccc(CN3CCN(c4ccc(OCOC)cc4)CC3)cc2)cc1", "condition not met"],
  ["CC#C[C@@H](CC(=O)O)c1ccc(OCc2ccc(CN3CCN(c4ccc(OCCCS(C)(=O)=O)cc4)CC3)cc2)cc1", "condition not met"],
  ["CC#C[C@@H](CC(=O)O)c1ccc(OCc2ccc(CN3CCC4(C=Cc5ccccc54)CC3)cc2)cc1 [Comparative Example 2, reference compound]", "condition met"],
  ["CC#C[C@@H](CC(=O)O)c1ccc(OCc2cccc(C3=CCC4(CC3)OCCO4)c2)cc1", "condition met"],
  ["CC#C[C@@H](CC(=O)O)c1ccc(OCc2ccc(CN3CCC(c4ccccc4)CC3)cc2)cc1", "condition not met"],
  ["CC#C[C@@H](CC(=O)O)c1ccc(OCc2ccc(CN3CCN(c4ccc(OC)cc4)CC3)cc2)cc1", "condition not met"],
  ["CC#CC(CC(=O)O)c1ccc(OCc2cccc(C3=CCC4(CC3)OCCO4)c2)cc1 (stereo not drawn)", "condition met"],
  ["CC#CC(CC(=O)O)c1ccc(OCc2cccc(C3=CCC(=O)CC3)c2)cc1 (stereo not drawn)", "condition met"]
]}

---

- STUDY_SYSTEM: CYP2D6 (Homo sapiens (Human))
- Sequence (P10635 whole entry): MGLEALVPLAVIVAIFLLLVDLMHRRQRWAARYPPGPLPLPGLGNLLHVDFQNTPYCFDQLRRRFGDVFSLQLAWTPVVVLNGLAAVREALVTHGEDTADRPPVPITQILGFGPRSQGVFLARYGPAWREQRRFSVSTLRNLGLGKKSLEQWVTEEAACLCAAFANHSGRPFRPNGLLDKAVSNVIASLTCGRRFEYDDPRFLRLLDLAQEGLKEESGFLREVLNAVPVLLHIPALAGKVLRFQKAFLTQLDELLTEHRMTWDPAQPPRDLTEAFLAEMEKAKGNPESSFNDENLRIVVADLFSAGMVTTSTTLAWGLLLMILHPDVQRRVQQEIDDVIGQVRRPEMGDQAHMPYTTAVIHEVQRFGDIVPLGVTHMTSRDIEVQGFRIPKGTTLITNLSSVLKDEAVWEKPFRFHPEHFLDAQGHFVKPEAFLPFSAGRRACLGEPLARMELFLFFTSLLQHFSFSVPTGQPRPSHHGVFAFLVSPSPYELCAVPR
- TEST_DETAILS: CYP inhibition (Invitrogen Vivid kit)
- Type: in vitro ADME
- APPLIED_CONDITIONS: CYP2D6 P450 BACULOSOMES reagent (Invitrogen kit P2862), probe Vivid CYP450 substrate, read-out: CYP inhibition (%) 2D6

{"columns": ["COMPOUND", "STUDY_SYSTEM", "inhibition at 1 h, 10 µM, %"],
 "data": [
  ["CC#CC(CC(=O)O)c1ccc(OCc2ccc(C3=CCC4(CC3)OCCO4)cc2)cc1 (stereo not drawn)", "CYP2D6 (Homo sapiens (Human))", 6],
  ["CC#C[C@@H](CC(=O)O)c1ccc(OCc2ccc(CN3Cc4ccccc4C3)cc2)cc1", "CYP2D6 (Homo sapiens (Human))", 15.6],
  ["CC#C[C@@H](CC(=O)O)c1ccc(OCc2cccc(C3=CCC4(CC3)OCCO4)c2)cc1", "CYP2D6 (Homo sapiens (Human))", 13.9]
]}
